Target: Amine oxidase [flavin-containing] A (Bos taurus)
Sequence (P21398 whole entry): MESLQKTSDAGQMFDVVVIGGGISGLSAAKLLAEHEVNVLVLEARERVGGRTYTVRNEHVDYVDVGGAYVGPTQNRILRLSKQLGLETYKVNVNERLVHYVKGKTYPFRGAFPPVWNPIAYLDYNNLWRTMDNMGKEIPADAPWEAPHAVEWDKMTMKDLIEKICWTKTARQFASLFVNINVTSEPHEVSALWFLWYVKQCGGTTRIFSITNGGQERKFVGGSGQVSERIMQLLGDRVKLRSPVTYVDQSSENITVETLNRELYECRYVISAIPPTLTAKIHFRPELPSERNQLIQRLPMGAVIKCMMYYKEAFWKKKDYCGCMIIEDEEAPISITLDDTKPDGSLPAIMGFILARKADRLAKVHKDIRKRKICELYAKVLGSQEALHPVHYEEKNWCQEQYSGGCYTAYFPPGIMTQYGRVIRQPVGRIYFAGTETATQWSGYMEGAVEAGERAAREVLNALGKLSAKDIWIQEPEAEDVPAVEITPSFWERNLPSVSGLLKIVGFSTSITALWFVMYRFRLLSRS
pKi: −log10 of the molar value.
PARAMETER: pKi

A = COC[C@@H]1CN(n2cccc2)C(=O)O1
B = CN(C)C[C@H]1CN(n2cccc2)C(=O)O1
Problem: // compare measured pKi, left A , right B , return larger Mark your selection by writing its label.
Solution: A
(A: 6.00, B: 4.40)

a = O=C1O[C@H](CO)CN1n1cccc1
b = [N-]=[N+]=NC[C@@H]1CN(n2cccc2)C(=O)O1
c = COC[C@@H]1CN(c2ccc(OCC[C@H](O)C(F)(F)F)cc2)C(=O)O1 [(R/R)BEFLOXATONE]
Problem: With regard to pKi, arrange the entries in ascending order, please. A complete answer lists every label in the requested sequence.
Solution: b, a, c
(b: 5.60, a: 5.92, c: 8.60)

Cited source: ChEMBL document CHEMBL1135879
